So I've got a bunch of compounds here, and I need their Amax (maximum % activation achieved) values.
# MEASURED_TARGET: Neurolysin (Nln) (Rattus norvegicus)
# Construct: polyhistidine (N); made in house; host or cells: Escherichia coli (pBAD/His vector), if the rat enzyme of b61 was used
# Sequence (P42676 38-704): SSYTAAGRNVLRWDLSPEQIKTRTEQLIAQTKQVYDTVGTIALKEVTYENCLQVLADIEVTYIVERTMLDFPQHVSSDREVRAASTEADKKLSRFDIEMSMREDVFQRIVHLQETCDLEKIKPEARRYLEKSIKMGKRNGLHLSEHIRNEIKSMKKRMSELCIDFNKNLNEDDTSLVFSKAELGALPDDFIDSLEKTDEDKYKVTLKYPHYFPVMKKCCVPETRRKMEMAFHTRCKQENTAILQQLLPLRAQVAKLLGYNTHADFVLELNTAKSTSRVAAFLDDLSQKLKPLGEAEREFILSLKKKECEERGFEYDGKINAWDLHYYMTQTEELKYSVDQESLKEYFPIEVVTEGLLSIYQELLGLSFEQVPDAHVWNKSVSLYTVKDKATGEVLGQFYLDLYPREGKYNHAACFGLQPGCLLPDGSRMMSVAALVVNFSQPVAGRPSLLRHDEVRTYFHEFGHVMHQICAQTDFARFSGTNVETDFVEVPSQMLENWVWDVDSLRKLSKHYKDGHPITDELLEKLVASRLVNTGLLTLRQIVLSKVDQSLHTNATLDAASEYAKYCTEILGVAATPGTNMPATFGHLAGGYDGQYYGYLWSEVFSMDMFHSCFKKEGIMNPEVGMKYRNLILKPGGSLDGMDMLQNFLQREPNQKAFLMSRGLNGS
# TEST_PROTOCOL: Nln activation in isolated enzyme assay (A50, Amax)
# Assay type: biochemical
# ASSAY_CONDITIONS: 100% = normal enzyme turnover; 95% CI in parentheses
Peptide text beside a SMILES is read from it. * marks the point of attachment. NHPhenethyl = c1ccc(CCN*)cc1

# return recorded Amax (maximum % activation achieved) for input COc1ccc(CCNC(=O)[C@@H](N)Cc2c[nH]cn2)cc1 [AB-1-4-2]
544 (492.2 to 609.4) %

# return recorded Amax (maximum % activation achieved) for input N[C@@H](Cc1c[nH]cn1)C(=O)N[C@@H](Cc1ccccc1)C(=O)NCCc1ccccc1 [AB-2-5-4] (H-His-Phe-NHPhenethyl)
177.6 (158.7 to 198.1) %

# return recorded Amax (maximum % activation achieved) for input N[C@@H](Cc1c[nH]cn1)C(=O)N[C@@H](Cc1ccc(O)cc1)C(=O)O [Compound 1, Histidine-tyrosine] (H-His-Tyr-OH)
467 (424.9 to 516.9) %

# return recorded Amax (maximum % activation achieved) for input N[C@H](Cc1c[nH]cn1)C(=O)NCCc1ccccc1 [AB-2-7-2]
407 (382.7 to 434.9) %

# return recorded Amax (maximum % activation achieved) for input N[C@@H](Cc1c[nH]cn1)C(=O)Nc1ccccc1 (single isomer, unassigned) [DF-5-2A]
139.8 (124.7 to 158.4) %
